Molecular target: DLK1-Fc fusion protein (human)
Sequence (chain, as listed by the source limits assumed, form in doubt): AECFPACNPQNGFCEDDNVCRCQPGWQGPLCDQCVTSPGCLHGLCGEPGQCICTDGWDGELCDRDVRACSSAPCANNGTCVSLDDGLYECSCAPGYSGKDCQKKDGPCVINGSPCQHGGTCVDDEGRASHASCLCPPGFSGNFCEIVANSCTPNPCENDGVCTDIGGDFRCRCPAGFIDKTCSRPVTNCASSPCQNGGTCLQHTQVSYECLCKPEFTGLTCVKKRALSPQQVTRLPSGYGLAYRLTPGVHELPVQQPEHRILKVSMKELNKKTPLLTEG
Assay: phage ELISA, DLK1 coated
QUANTITY: OD490 (OD)
Answers are plain numbers, in OD.

>>> observed_measurement("DLK1 A04 (monoclonal scFv-phage) (scFv, V domains shown) VH: QVQLVESGAEVKKPGASVKVSCKASGYTFKDYAIHWVRQAPGQRLEWMGWINPGSGNTKYSHNFEGRVILTRDASANTAYLELPSLRSEDTAVYYCARSVSAYGSNYFDPWGQGTLITVSS VL: DIQMTQSPSSLSASVGDRVTITCQASQDISNYLNWYQQKPGKAPKLLIYSTSNLQSGVPSRFSGSGSGTDFTLTISSLQPEDFATYYCQQLNSYPLTFGGGTKVDIK")
3.12

We next turn to a different binder, shown below.
Record request: OD490 value, item DLK1 A10 (monoclonal scFv-phage) (scFv, V domains shown) VH: QVQLVESGGGLVQPGRSLRLSCAASGFTFDDYAMHWVRQAPGKGLEWVSGISWNSGSIGYADSVKGRFTISRDNAKNSLYLQMNSLRAEDTAVYYCARGPGLATGKGYADYWGQGTLVTVSS VL: DIQMTQSPSSVSASVGDRVTITCRASQRISSWLAWYQQKPGRAPKLLIHSASTLHNGVPSRFSGSASGTDFTLTISSLQPEDYAIYYCQQGHSFPYTFGQGTKLEIK
2.83
